Reference for the values: patent US4199570A

Tested on: Pseudomonas aeruginosa TB-151
assayText: MIC (Table 2)
Format: cell-based
conditionDescription: TB151, tobramycin resistant strain, read-out: Minimum Inhibitory Concentration (MIC)
reportedProperty: MIC

Examples from the recorded data:
- compound: "NC[C@H]1O[C@H](O[C@H]2[C@H](O)[C@@H](O[C@H]3O[C@H](CO)[C@@H](O)[C@H](N)[C@H]3O)[C@H](N)C[C@@H]2N)[C@H](N)C[C@@H]1O"
  reportedProperty: "MIC"
  measuredValue: "100 µg/mL"
- compound: "NC[C@H]1O[C@H](O[C@H]2[C@H](O)[C@@H](O[C@H]3O[C@H](CO)[C@@H](O)[C@H](N)[C@H]3O)[C@H](NC(=O)C3(O)CNC3)C[C@@H]2N)[C@H](O)[C@@H](O)[C@@H]1O"
  reportedProperty: "MIC"
  measuredValue: "6.25 µg/mL"

Tell us which MIC value is on record for NC[C@H]1O[C@H](O[C@H]2[C@H](O)[C@@H](O[C@H]3O[C@H](CO)[C@@H](O)[C@H](N)[C@H]3O)[C@H](N)C[C@@H]2N)[C@H](O)[C@@H](O)[C@@H]1O
> 100 µg/mL

Tell us which MIC value is on record for NC[C@H]1O[C@H](O[C@H]2[C@H](O)[C@@H](O[C@H]3O[C@H](CO)[C@@H](O)[C@H](N)[C@H]3O)[C@H](NC(=O)C3(O)CNC3)C[C@@H]2N)[C@H](N)C[C@@H]1O
3.13 µg/mL
